# ASSAY TARGET: Tyk2 (Homo sapiens (Human), UniProt P29597)
# Sequence (P29597 whole entry): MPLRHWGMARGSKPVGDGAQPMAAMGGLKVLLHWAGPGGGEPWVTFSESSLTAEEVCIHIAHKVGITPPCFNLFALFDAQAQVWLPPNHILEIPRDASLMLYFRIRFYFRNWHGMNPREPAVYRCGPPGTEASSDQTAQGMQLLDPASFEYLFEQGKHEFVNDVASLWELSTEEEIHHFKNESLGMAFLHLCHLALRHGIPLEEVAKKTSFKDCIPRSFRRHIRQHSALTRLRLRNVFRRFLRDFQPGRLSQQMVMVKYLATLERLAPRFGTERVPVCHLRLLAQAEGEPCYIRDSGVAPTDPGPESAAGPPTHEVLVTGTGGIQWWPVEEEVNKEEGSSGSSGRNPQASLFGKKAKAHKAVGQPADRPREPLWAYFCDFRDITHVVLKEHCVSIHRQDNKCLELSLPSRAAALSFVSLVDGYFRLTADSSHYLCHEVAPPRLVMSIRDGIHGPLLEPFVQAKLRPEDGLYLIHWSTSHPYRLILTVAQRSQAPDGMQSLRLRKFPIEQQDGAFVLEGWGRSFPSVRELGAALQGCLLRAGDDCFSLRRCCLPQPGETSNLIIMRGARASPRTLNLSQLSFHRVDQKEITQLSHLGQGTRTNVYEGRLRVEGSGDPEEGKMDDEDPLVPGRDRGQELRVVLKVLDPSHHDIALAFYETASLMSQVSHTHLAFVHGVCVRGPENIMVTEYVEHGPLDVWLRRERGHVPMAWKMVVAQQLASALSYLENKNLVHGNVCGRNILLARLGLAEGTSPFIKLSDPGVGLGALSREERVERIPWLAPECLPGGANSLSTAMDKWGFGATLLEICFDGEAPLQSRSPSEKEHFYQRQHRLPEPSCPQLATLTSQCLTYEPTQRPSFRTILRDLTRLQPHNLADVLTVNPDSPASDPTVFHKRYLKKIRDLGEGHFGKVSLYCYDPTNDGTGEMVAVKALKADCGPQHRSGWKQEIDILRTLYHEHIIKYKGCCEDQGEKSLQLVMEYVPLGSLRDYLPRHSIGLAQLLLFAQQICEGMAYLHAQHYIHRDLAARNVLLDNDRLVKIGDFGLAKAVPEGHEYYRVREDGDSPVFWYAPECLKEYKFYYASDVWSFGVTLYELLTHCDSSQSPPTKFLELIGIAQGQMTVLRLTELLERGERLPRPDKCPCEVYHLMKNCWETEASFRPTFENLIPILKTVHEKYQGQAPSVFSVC
# EXPERIMENT DESCRIPTION: pSTAT4 Cell Assay (MSD, NK92 cells)
# Type: cell-based
# TEST CONTEXT: MSD
As shown below, each of these compounds has a reported IC50 value.
READOUT LABEL: IC50

>>> df
                               given_smiles                              assay_target  readout_label  observed_value
0  CCc1cc(Nc2cc(NC(C)=O)ncc2-c2ccc(C#N)cn2)nc(C(C)(F)F)n1  Tyk2 (Homo sapiens (Human), UniProt P29597)           IC50         ≤ 10 nM
1  CC(=O)Nc1cc(Nc2cc(C)nc(C(C)(F)F)n2)c(O)cn1  Tyk2 (Homo sapiens (Human), UniProt P29597)           IC50       ≥ 1000 nM
2  CC(=O)Nc1cc(Nc2ccnc(C(C)(F)F)n2)c(-c2ccc3c(n2)CCC3=O)cn1  Tyk2 (Homo sapiens (Human), UniProt P29597)           IC50    10 to 100 nM
3  COCCOc1cncc(-c2cnc(NC(C)=O)cc2Nc2ccnc(C(C)(F)F)n2)n1  Tyk2 (Homo sapiens (Human), UniProt P29597)           IC50  100 to 1000 nM
4  CC(=O)Nc1cc(Nc2cc(C)nc(C(C)(F)F)n2)c(OCCN(C)C)cn1  Tyk2 (Homo sapiens (Human), UniProt P29597)           IC50    10 to 100 nM
5  CC(=O)Nc1cc(Nc2cc(C)nc(C(C)(F)F)n2)c(-c2cccc(N3CCOCC3)n2)cn1  Tyk2 (Homo sapiens (Human), UniProt P29597)           IC50         ≤ 10 nM
6  CC(=O)Nc1cc(Nc2cc(C)nc(C(C)(F)F)n2)c(-c2cc(C(F)F)ncn2)cn1  Tyk2 (Homo sapiens (Human), UniProt P29597)           IC50    10 to 100 nM
7  CC(=O)Nc1cc(Nc2cc(C)nc(C(C)(F)F)n2)c(OCc2cnco2)cn1  Tyk2 (Homo sapiens (Human), UniProt P29597)           IC50         ≤ 10 nM

* * *

As shown below, each of these compounds has a reported pIC50 value.
# ASSAY TARGET: JH2 domain of human Tyk2 (Homo sapiens (Human), UniProt P29597)
# EXPERIMENT DESCRIPTION: JH2 Biochemical Assay (TR-FRET probe displacement)
# Type: binding
# TEST CONTEXT: JH2 domain of human Tyk2, TR-FRET probe displacement
pIC50: −log10 of the molar value. Structures can show the parent of a compound that is named as a salt.
READOUT LABEL: pIC50

>>> print(df.to_string())
                                    compound                              assay_target  observed_value
 0  CC(=O)Nc1cc(Nc2cc(C)nc(C(C)(F)F)n2)c(-c2ncc(F)c(C)n2)cn1  JH2 domain of human Tyk2 (Homo sapiens (Human), UniProt P29597)    7.00 to 8.00
 1  CC(=O)Nc1cc(Nc2ccnc(C(C)(F)F)n2)c(-c2nnc(C3CC3)o2)cn1  JH2 domain of human Tyk2 (Homo sapiens (Human), UniProt P29597)          ≥ 8.00
 2  CC(=O)Nc1cc(Nc2cc(C)nc(C(C)(F)F)n2)c(-c2cnc(C(C)N(C)C)cn2)cn1 (stereo not shown)  JH2 domain of human Tyk2 (Homo sapiens (Human), UniProt P29597)          ≥ 8.00
 3  COc1cnc(NC(C)=O)cc1Nc1cc(-c2ccncc2)nc(C(C)(F)F)n1  JH2 domain of human Tyk2 (Homo sapiens (Human), UniProt P29597)    7.00 to 8.00
 4  CC(=O)Nc1cc(Nc2cc(C)nc(C(C)(F)F)n2)c(OCC2(C)CCOC2)cn1 (stereo not shown)  JH2 domain of human Tyk2 (Homo sapiens (Human), UniProt P29597)          ≥ 8.00
 5  COc1cnc(NC(C)=O)cc1Nc1cc(C)nc(C2CCOC2)n1 (stereo not shown)  JH2 domain of human Tyk2 (Homo sapiens (Human), UniProt P29597)    7.00 to 8.00
 6  CC(=O)Nc1cc(Nc2cc(C)nc(C34COC(C3)C4)n2)c(-c2ccn(C)n2)cn1  JH2 domain of human Tyk2 (Homo sapiens (Human), UniProt P29597)          ≥ 8.00
 7  CC(=O)Nc1cc(Nc2ccnc(C(C)(F)F)n2)c(-c2ncc(Cl)cn2)cn1  JH2 domain of human Tyk2 (Homo sapiens (Human), UniProt P29597)          ≥ 8.00
 8  CC(=O)Nc1cc(Nc2cc(C)nc(C(C)(F)F)n2)c(-c2nc(C)cc(C#N)n2)cn1  JH2 domain of human Tyk2 (Homo sapiens (Human), UniProt P29597)    7.00 to 8.00
 9  CC(=O)Nc1cc(Nc2cc(C)nc(C(C)(F)F)n2)c(-c2ncc(C#N)cn2)cn1  JH2 domain of human Tyk2 (Homo sapiens (Human), UniProt P29597)          ≥ 8.00
10  CC(=O)Nc1cc(Nc2cc(C)nc(C(C)(F)F)n2)c(N2CCCC2)cn1  JH2 domain of human Tyk2 (Homo sapiens (Human), UniProt P29597)    7.00 to 8.00
11  CC(=O)Nc1cc(Nc2cc(C)nc(C(C)(F)F)n2)c(-c2cc(F)ccn2)cn1  JH2 domain of human Tyk2 (Homo sapiens (Human), UniProt P29597)          ≥ 8.00
12  CC(=O)Nc1cc(Nc2cc(C)nc(C34CC(CO3)C4)n2)c(-c2ccn(C)n2)cn1  JH2 domain of human Tyk2 (Homo sapiens (Human), UniProt P29597)          ≥ 8.00
13  CCOc1cnc(NC(C)=O)cc1Nc1cc(Cl)nc(C(C)(F)F)n1  JH2 domain of human Tyk2 (Homo sapiens (Human), UniProt P29597)          ≥ 8.00
14  CC(=O)Nc1cc(Nc2cc(C)nc(C(C)(F)F)n2)c(OCC2CCC(=O)O2)cn1 (stereo not shown)  JH2 domain of human Tyk2 (Homo sapiens (Human), UniProt P29597)          ≥ 8.00
15  CCOc1cnc(NC(C)=O)cc1Nc1cc(OC2CC(C#N)C2)nc(C(C)(F)F)n1 (stereo not shown)  JH2 domain of human Tyk2 (Homo sapiens (Human), UniProt P29597)          ≥ 8.00
16  CC(=O)Nc1cc(Nc2cc(C)nc(C(C)(F)F)n2)c(-c2nc(C)ns2)cn1  JH2 domain of human Tyk2 (Homo sapiens (Human), UniProt P29597)          ≥ 8.00
17  CC(=O)Nc1cc(Nc2ccnc(C(C)(F)F)n2)c(-c2ccc(CN3CCC4(COC4)C3)cn2)cn1  JH2 domain of human Tyk2 (Homo sapiens (Human), UniProt P29597)          ≥ 8.00
18  COc1cnc(NC(C)=O)cc1Nc1cc(OC2CCC2)nc(C(C)(F)F)n1 [Example 455, trifluoroacetate]  JH2 domain of human Tyk2 (Homo sapiens (Human), UniProt P29597)          ≥ 8.00
19  CC(=O)Nc1cc(Nc2cc(C)nc(C(C)(F)F)n2)c(OCCc2ccccn2)cn1  JH2 domain of human Tyk2 (Homo sapiens (Human), UniProt P29597)          ≥ 8.00
20  CC(=O)Nc1cc(Nc2ccnc(C(C)(F)F)n2)c(-c2coc(C)n2)cn1  JH2 domain of human Tyk2 (Homo sapiens (Human), UniProt P29597)          ≥ 8.00
21  COC(=O)Nc1cc(Nc2cc(OC3CC3)nc(C(C)(F)F)n2)c(OCCN(C)C)cn1  JH2 domain of human Tyk2 (Homo sapiens (Human), UniProt P29597)          ≥ 8.00
